All figures here come from paper PMC8308845.

target: OXA-48 (Klebsiella pneumoniae); construct: made in house; host or cells: E. coli BL21(DE3), T7 expression system; assay: OXA-48 primary enzymatic assay (nitrocefin substrate, fluorescence-quenching readout); format: biochemical; settings: dose–response, median of triplicate wells; 15 min preincubation, 25 µM nitrocefin
Sequence (Q6XEC0 23-265, looked up): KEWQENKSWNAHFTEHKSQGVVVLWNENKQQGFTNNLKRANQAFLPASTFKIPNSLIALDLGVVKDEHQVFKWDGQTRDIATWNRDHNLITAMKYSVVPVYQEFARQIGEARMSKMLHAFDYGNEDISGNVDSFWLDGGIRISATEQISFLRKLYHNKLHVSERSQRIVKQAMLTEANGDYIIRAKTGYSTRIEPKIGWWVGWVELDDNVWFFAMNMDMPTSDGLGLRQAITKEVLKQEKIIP
Kindly apply the following: yes (1) if AC50 is less than 10 µM, no (0) in every other case.

[ask] AC50 under 10 µM? Item: CCc1ccc(-c2n[nH]c3nc(-c4cc(F)c(O)cc4F)cc(C(=O)O)c23)cc1
[reply] no (0)

[ask] Please indicate whether the reported AC50 of CCc1ccc(-c2n[nH]c3nc(-c4ccc(C(=O)O)cc4)cc(CO)c23)cc1 is strictly below 10 µM.
[reply] no (0)

[ask] Hi there! Is AC50 for N#Cc1ccc(/C=N/n2c(S)nnc2-c2ccccc2)cc1 below 10 µM, do you know?
[reply] no (0)
